Molecular target: Human NK1 Receptor (Homo sapiens)
Construct: endogenous in cells; host or cells: Human lymphoma IM9 cells (whole cells)
Test: In Vitro Human NK1 Receptor Binding Assay ([125I]Bolton-Hunter substance P displacement, IM9 cells)
Details: Human lymphoma IM9 cells, [125I]Bolton-Hunter substance P (0.05-0.1 nM), 50 min at 21° C.; Table 1; read-out: NK1 binding IC50
Kindly supply the reported log10(IC50) values for the records listed here.
Hey, these are logged values: log10 of IC50, nM being the unit before logging.

Below, each entry is followed by its recorded log10(IC50) result.
C[C@H](NC(=O)[C@@H](Cc1c[nH]c2ccccc12)NCc1nc2ccccc2[nH]1)c1ccccc1 (relative stereo) [Example 9] : 2.05
C[C@H](NC(=O)[C@@H](Cc1c[nH]c2ccccc12)NCc1cnc2ccccc2c1)c1ccccc1 (relative stereo) [Example 11] : 1.66
C[C@H](NC(=O)[C@@](C)(Cc1c[nH]c2ccccc12)NCc1ccn[nH]1)c1ccccc1 (relative stereo) [Example 21] : 3.26

State the recorded log10(IC50) for every item in the following list.
1. C[C@H](NC(=O)[C@@H](Cc1c[nH]c2ccccc12)NCc1cc2ccccc2s1)c1ccccc1 [Example 10]
2. C[C@H](NC(=O)[C@@](C)(Cc1c[nH]c2ccccc12)NCc1ccc[nH]1)c1ccccc1 (relative stereo) [Example 20]
3. C[C@H](NC(=O)[C@@H](Cc1c[nH]c2ccccc12)NCc1ccc(Cl)s1)c1ccccc1 (relative stereo) [Example 12]

1: 1.71; 2: 2.91; 3: 1.15

---

Molecular target: Human NK1 Receptor (Homo sapiens, UniProt P25103)
Construct: endogenous in cells; host or cells: Human lymphoma IM9 cells (whole cells)
Sequence (P25103 whole entry): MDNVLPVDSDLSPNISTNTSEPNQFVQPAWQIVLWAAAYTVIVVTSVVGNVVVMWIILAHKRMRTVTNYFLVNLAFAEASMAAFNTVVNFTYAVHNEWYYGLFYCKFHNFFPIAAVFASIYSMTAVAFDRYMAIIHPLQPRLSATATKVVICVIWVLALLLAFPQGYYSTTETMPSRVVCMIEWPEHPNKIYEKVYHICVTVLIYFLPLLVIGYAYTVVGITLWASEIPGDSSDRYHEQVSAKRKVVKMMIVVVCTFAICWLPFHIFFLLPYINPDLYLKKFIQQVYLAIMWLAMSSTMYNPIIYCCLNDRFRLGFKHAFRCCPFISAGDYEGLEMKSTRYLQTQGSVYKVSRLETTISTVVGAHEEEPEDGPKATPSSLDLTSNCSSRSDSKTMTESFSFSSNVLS
Test: In Vitro Human NK1 Receptor Binding Assay ([125I]Bolton-Hunter substance P displacement, IM9 cells)
Conditions: Table 4; [125I]Bolton-Hunter substance P displacement, human IM9 cells; read-out: IC50 (nM) hNK1
Binary call on IC50 with cut-off 2000 nM: strictly below means t, and equality or higher means f.

These recorded examples may help you get a feel for the data.
CC(NC(=O)C(C)(Cc1c[nH]c2ccccc12)NCc1ccc(-c2ccc([N+](=O)[O-])cc2)o1)c1ccccc1 (centres unmarked) : t
CC(NC(=O)C(C)(Cc1c[nH]c2ccccc12)NCc1cccnc1)c1ccccc1 (centres unmarked) : f
CC(NC(=O)C(C)(Cc1c[nH]c2ccccc12)NCc1cnc2ccccc2c1)c1ccccc1 (centres unmarked) : t

is_below(IC50, 2000 nM) for CC(NC(=O)C(C)(Cc1c[nH]c2ccccc12)NCc1ccoc1)c1ccccc1 (centres unmarked) ?
t

Does CC(NC(=O)C(C)(Cc1c[nH]c2ccccc12)NCc1ccncc1)c1ccccc1 (centres unmarked) have IC50 strictly under 2000 nM?
f

Hello, is IC50 of the following molecule strictly smaller than 2000 nM? CC(NC(=O)C(C)(Cc1c[nH]c2ccccc12)NCc1ccc2ccccc2c1)c1ccccc1 (centres unmarked)
t

Determine if CC(NC(=O)C(C)(Cc1c[nH]c2ccccc12)NCc1ccccc1Sc1ccc(Cl)cc1)c1ccccc1 (centres unmarked) shows IC50 strictly lower than 2000 nM.
f

Please check: IC50 for CC(NC(=O)C(C)(Cc1c[nH]c2ccccc12)NCc1ccc(C=Cc2ccccc2)o1)c1ccccc1 (centres unmarked) , strictly under 2000 nM or not?
t

---

Target: Human NK1 Receptor (Homo sapiens)
Construct: endogenous in cells; host or cells: Human lymphoma IM9 cells (whole cells)
Assay: In Vitro Human NK1 Receptor Binding Assay ([125I]Bolton-Hunter substance P displacement, IM9 cells)
Conditions: human NK1 receptor, IM9 cells, [125I]Bolton-Hunter substance P; read-out: IC50 (nM) hNK1
Would you mind telling me the reported IC50 of each entry?

CC(NC(=O)C(C)(Cc1c[nH]c2ccccc12)NCc1cc2ccccc2o1)c1ccccn1 (centres unmarked) : 12 nM
CC(Cc1c[nH]c2ccccc12)(NCc1cc2ccccc2o1)C(=O)NCc1cccc([N+](=O)[O-])c1 (centres unmarked) : 12 nM
CN1CCCC1CCNC(=O)C(C)(Cc1c[nH]c2ccccc12)NCc1cc2ccccc2o1 (centres unmarked) : > 10000 nM
CC(Cc1c[nH]c2ccccc12)(NCc1cc2ccccc2o1)C(=O)NCCN1CCCC1=O (centres unmarked) : > 10000 nM

// batch mode: one IC50 value per listed entry
1. CC(Cc1c[nH]c2ccccc12)(NCc1cc2ccccc2o1)C(=O)NCc1cccc(OC(F)(F)F)c1 (centres unmarked)
2. CC(Cc1c[nH]c2ccccc12)(NCc1cc2ccccc2o1)C(=O)NCC1CCNCC1 (centres unmarked)
3. CCC(NC(=O)C(C)(Cc1c[nH]c2ccccc12)NCc1cc2ccccc2o1)c1cccs1 (centres unmarked)
4. CC(Cc1c[nH]c2ccccc12)(NCc1cc2ccccc2o1)C(=O)NC(Cc1ccccc1)c1ccccc1 (centres unmarked)

["> 10000 nM", "> 10000 nM", "128 nM", "> 10000 nM"]

---

Target: Human NK1 Receptor (Homo sapiens, UniProt P25103)
Construct: endogenous in cells; host or cells: Human lymphoma IM9 cells (whole cells)
Test: In Vitro Human NK1 Receptor Binding Assay ([125I]Bolton-Hunter substance P displacement, IM9 cells)
Conditions: Human lymphoma IM9 cells, [125I]Bolton-Hunter substance P; Table 3, array-synthesis products; read-out: IC50 (nM) hNK1
measurement_label: IC50 (nM)
Answers are plain numbers, in nM.

Reference set, count: 5
O=C(NCc1cc(C(F)(F)F)cc(C(F)(F)F)c1)C(Cc1c[nH]c2ccccc12)NCc1cc2ccccc2o1 (stereo not shown) : 294
CC(NC(=O)C(Cc1c[nH]c2ccccc12)NCc1cc2ccccc2o1)c1cccc2ccccc12 (stereo not shown) [Example 197] : 933
Cc1ccc(C(C)NC(=O)C(Cc2c[nH]c3ccccc23)NCc2cc3ccccc3o2)s1 (stereo not shown) : 15
O=C(NCc1cc(F)cc(C(F)(F)F)c1)C(Cc1c[nH]c2ccccc12)NCc1cc2ccccc2o1 (stereo not shown) : 17
CC(NC(=O)C(Cc1c[nH]c2ccccc12)NCc1cc2ccccc2o1)c1ccsc1 (stereo not shown) : 7

Below is a list of molecules. For each, state its recorded IC50.
1. CC(C)(NC(=O)C(Cc1c[nH]c2ccccc12)NCc1cc2ccccc2o1)c1ccccc1 (stereo not shown)
2. O=C(NC(CO)Cc1ccccc1)C(Cc1c[nH]c2ccccc12)NCc1cc2ccccc2o1 (stereo not shown)
3. O=C(NCc1ccc(F)cc1F)C(Cc1c[nH]c2ccccc12)NCc1cc2ccccc2o1 (stereo not shown)
4. N#CC(NC(=O)C(Cc1c[nH]c2ccccc12)NCc1cc2ccccc2o1)c1ccccc1 (stereo not shown)
5. O=C(NCCc1cccc(F)c1)C(Cc1c[nH]c2ccccc12)NCc1cc2ccccc2o1 (stereo not shown)
6. O=C(NCC1CCNC1)C(Cc1c[nH]c2ccccc12)NCc1cc2ccccc2o1 (stereo not shown)

[328, 209, 53, 35, 55, 2180]

---

Molecular target: Human NK1 Receptor (Homo sapiens, UniProt P25103)
Construct: endogenous in cells; host or cells: Human lymphoma IM9 cells (whole cells)
Experiment: In Vitro Human NK1 Receptor Binding Assay ([125I]Bolton-Hunter substance P displacement, IM9 cells)
Conditions: Human lymphoma IM9 cells, [125I]Bolton-Hunter substance P; Table 3, array-synthesis products; read-out: IC50 (nM) hNK1
measurement_label: log10 IC50 (log10 of the value in nM)
Response schema: value (number) is log10 of IC50 in units of nM.

Go through the list and state log10 IC50 for each entry.
1. O=C(NCCc1c[nH]cn1)C(Cc1c[nH]c2ccccc12)NCc1cc2ccccc2o1 (centres unmarked)
2. O=C(NCc1ccccn1)C(Cc1c[nH]c2ccccc12)NCc1cc2ccccc2o1 (centres unmarked)
3. CC(CCc1ccccc1)NC(=O)C(Cc1c[nH]c2ccccc12)NCc1cc2ccccc2o1 (centres unmarked)
4. O=C(NCCc1ccccc1F)C(Cc1c[nH]c2ccccc12)NCc1cc2ccccc2o1 (centres unmarked)
5. Cc1ccc(CCNC(=O)C(Cc2c[nH]c3ccccc23)NCc2cc3ccccc3o2)cc1 (centres unmarked)
6. O=C(NCc1cnc2ccccc2c1)C(Cc1c[nH]c2ccccc12)NCc1cc2ccccc2o1 (centres unmarked)
7. CC(NC(=O)C(Cc1c[nH]c2ccccc12)NCc1cc2ccccc2o1)c1ccc(Br)cc1 (centres unmarked)

[3.82, 3.30, 2.59, 2.42, 2.41, 3.37, 0.90]

---

Biological target: Human NK1 Receptor (Homo sapiens, UniProt P25103)
Construct: endogenous in cells; host or cells: Human lymphoma IM9 cells (whole cells)
Experiment: In Vitro Human NK1 Receptor Binding Assay ([125I]Bolton-Hunter substance P displacement, IM9 cells)
Details: Human lymphoma IM9 cells, [125I]Bolton-Hunter substance P (0.05-0.1 nM), 50 min at 21° C.; Table 1; read-out: NK1 binding IC50
measurement_label: pIC50
One number for each entry, as −log10 of the molar value.

C[C@H](NC(=O)[C@@](C)(Cc1c[nH]c2ccccc12)NCc1cc2ccccc2o1)c1ccncc1 (relative stereo) : 8.22
C[C@H](NC(=O)[C@@H](Cc1c[nH]c2ccccc12)NCc1cccc(C#N)c1)c1ccccc1 (relative stereo) : 8.33
C[C@](Cc1c[nH]c2ccccc12)(NCc1cc2ccccc2o1)C(=O)NCc1cccc(O)c1 : 6.53
C[C@H](NC(=O)[C@@](C)(Cc1c[nH]c2ccccc12)NCc1cc2ccccc2o1)c1ccccc1 (relative stereo) : 8.36
C[C@H](NC(=O)[C@@H](Cc1c[nH]c2ccccc12)NCc1cccc(OC(F)(F)F)c1)c1ccccc1 (relative stereo) : 8.04

State recorded pIC50 for all listed compounds.
1. Cc1cc(CN[C@H](Cc2c[nH]c3ccccc23)C(=O)N[C@@H](C)c2ccccc2)oc1C (relative stereo)
2. CN(C)C[C@H](NC(=O)[C@@](C)(Cc1c[nH]c2ccccc12)NCc1cc2ccccc2o1)c1ccccc1
3. C[C@H](NC(=O)[C@@H](Cc1c[nH]c2ccccc12)NCc1cccc(SC(F)(F)F)c1)c1ccccc1 (relative stereo)
4. C[C@H](NC(=O)[C@@](C)(Cc1c[nH]c2ccccc12)NCc1coc2ccccc12)c1ccccc1 (relative stereo)
5. CC(C)(NC(=O)[C@@](C)(Cc1c[nH]c2ccccc12)NCc1cc2ccccc2o1)c1ccccc1
6. C[C@H](NC(=O)[C@@H](Cc1c[nH]c2ccccc12)NCc1cccc(O)c1)c1ccccc1 (relative stereo)
7. CC(NC(=O)[C@@](C)(Cc1c[nH]c2ccccc12)NCc1cc2ccccc2o1)c1ccn(C)c1 (stereo in doubt)

7.57
5.92
7.46
7.24
6.23
6.46
7.64
